Assay: yeast display, Sf9 membrane polyspecificity reagent, FACS + sequencing; frameworks hold sequencing errors
OBSERVATION_TYPE: polyreactivity (PSR sort gate)

// polyreactivity (PSR sort gate) value for QVQLVESGGGLVQPGGSLRLSCAASGRTSEIYTMGWYRPAPGKERELVASINTNSADSVKGRFTISRDNAKNTVYLQMNSLKPEDTAVYYCNADDTIEFNYWGQGTQVTVSS : low polyreactivity

// polyreactivity (PSR sort gate) value for QVQLVESGGGLVQAGASLRLSCAASGSISKSYAMGWYRQAPGKERELVAAISWRGGSTYADSVKGRFTISRDNAKNTVYLQMNSLKPEDTAVYYCAAVPVHTGSLYWGFTTGYDYWGQGTQVTVSS : low polyreactivity

// polyreactivity (PSR sort gate) value for QVQLVESGGGLVQAGGSHRLSCAASGSTFDYYAMGWYRQAPGKEREFVASINWNGARTYYADSVKGRFTNSRDNAKNTVYLQMNSLKPEDTAVYYCAKISRTYYRYDYWGQGTQVTVSS : high polyreactivity

// polyreactivity (PSR sort gate) value for QVQLVESGGGLVQAGGSLRLSCAASGSTSDINAMGWYRQAPGKERELVAVITDSSNTDYADSVKGRFTISRDNAKNTVYLQMNSLKPEDTAVYYCAADRDEPDPYDYWGQGTQVTVSS : low polyreactivity

Next:
// polyreactivity (PSR sort gate) value for QVQLVESGGGLVQAGGSLRLSCAASGSTFYTYVMGWYRQAPGKERELVAAISSGGGNTYYADSVKGRFTISRDNAKYTVYLQMNSLKPEDTAVYYCAASHTSYYLRYGYWGQGTQVTVSS : high polyreactivity

// polyreactivity (PSR sort gate) value for QVQLVESGGGLVQAGGSLRLSCAASGLIFSYYVMGWYRQAHGKERELVAAISRRGGSTYYADSVKGRFTISRDNAKNTVYLQMNSLKPEDTAVYYCNAQRNFKSITEYDYWGQGTQVTVSS : high polyreactivity

// polyreactivity (PSR sort gate) value for QVQLVESGGGLVQAGGSLRLSSASSGNILQGNAMGSYRQAPGKEMELVAAITSDGSTYADSVKGRFTISRDNAQNTVYLQMNSLKPEDTAVFYCNADGITSLPVTALDYWGQGTQVTVSS : low polyreactivity

// polyreactivity (PSR sort gate) value for QVQLVESGGGLVQAGGSLRLSCAASGRIFRYYTMGWYRQAPGKERELVAAITWSGGSTYYADSVKGRFTISRDNAKNTVYLQMNSLKPEDTAVYYCAVVYSPSMDYWGQGTQVTVSS : high polyreactivity

// polyreactivity (PSR sort gate) value for QVQLVESGGGLVQAGGSLRLSCAASGSTFIDYAMGWYRQAPGKERELVAAITWSGSSTYYADSVKGRFTISRDNAKNTVYLQMNSLKPEDTAVYYCAARYWYQSYHTYGYYSWGQGTQVTVSS : low polyreactivity
